# Test system: Female Sprague-Dawley rats
# conditionContext: rats, biofluids; 30, 60, 90, 120 min after dosing
# Description: Acute oral In vivo drug candidate screening for neurotoxicity. […] A total of four to eight animals of are used for each dose level investigated. At 30, 60, 90, and 120 minutes following dosing, the rats are sacrificed by decapitation and blood is obtained by cardiac puncture. The levels of biofluids S-100β, UCH-L1, and GFAP are analyzed by sandwich ELISA or western blot by using biomarker specific antibodies.

[
  {
    "molecule": "N.N.[Cl][Pt][Cl] [Cisplatin, cisplatin]",
    "S-100b level relative to control animals": "increase"
  },
  {
    "molecule": "CN1CC=C(c2ccccc2)CC1",
    "S-100b level relative to control animals": "increase"
  },
  {
    "molecule": "C=C(C)[C@H]1CN[C@H](C(=O)O)[C@H]1CC(=O)O",
    "S-100b level relative to control animals": "increase"
  }
]
